Parameter pIC50: see the listing below.
target: hMetAP2 (Homo sapiens, UniProt P50579); construct: made in house; assay: MetAP enzymatic assay, hMetAP2; assay type: biochemical; settings: Table 3; in the presence of Co^2+; read-out: hMetAP2 Co^2+ IC50
Sequence (P50579 whole entry): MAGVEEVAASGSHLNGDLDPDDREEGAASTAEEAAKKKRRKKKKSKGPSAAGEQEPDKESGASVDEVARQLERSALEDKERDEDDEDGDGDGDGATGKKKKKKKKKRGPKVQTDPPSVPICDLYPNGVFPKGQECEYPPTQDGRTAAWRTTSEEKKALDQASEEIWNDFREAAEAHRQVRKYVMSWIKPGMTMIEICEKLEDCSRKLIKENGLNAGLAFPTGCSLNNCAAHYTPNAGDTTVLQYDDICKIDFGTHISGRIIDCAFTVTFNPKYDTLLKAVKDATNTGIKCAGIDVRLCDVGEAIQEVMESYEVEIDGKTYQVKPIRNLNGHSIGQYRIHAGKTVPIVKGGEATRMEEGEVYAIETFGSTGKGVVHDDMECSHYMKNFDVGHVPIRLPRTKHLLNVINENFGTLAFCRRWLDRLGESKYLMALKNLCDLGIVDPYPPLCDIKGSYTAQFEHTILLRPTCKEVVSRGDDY
// scale note: pIC50 = -log10(conc_M); give the bare number

molecule	readoutName	reading
O=C(Nc1cc(F)cc(F)c1)Oc1ccc(Cl)c2cccnc12	pIC50	4.34
O=C(Nc1ccccc1)Oc1ccc(Cl)c2cccnc12 [Entry 4e, 5-Chloro-8-quinolyl-N-phenylcarbamate]	pIC50	5.72

Shift focus to the following entry.
Respond only with pIC50 recorded for O=C(Nc1cc(Cl)cc(Cl)c1)Oc1ccc(Cl)c2cccnc12
5.66

----------
target: hMetAP2 (Homo sapiens); construct: made in house; experiment: MetAP enzymatic assay, hMetAP2; assay type: biochemical; conditions: hMetAP2 Co^2+ IC50, Table 2; in the presence of Co^2+
readoutName: IC50

Oc1cccc2cccnc12 > 50 µM

Respond only with IC50 recorded for O=S(=O)(O)c1ccc(O)c2ncccc12
> 50 µM

----------
molecular target: hMetAP2 (Homo sapiens); construct: made in house; assay: MetAP enzymatic assay, hMetAP2; type: biochemical; conditions: read-out: hMetAP2 Co^2+ IC50; Table 2; in the presence of Co^2+
readoutName: IC50

Respond only with IC50 recorded for C=CCOc1ccc(Cl)c2cccnc12 [Entry 3a, 8-Allyloxy-5-chloroquinoline]
> 50 µM

----------
molecular target: hMetAP1 (Homo sapiens, UniProt P53582); construct: made in house; assay: MetAP enzymatic assay, hMetAP1; assay type: biochemical; conditions: read-out: hMetAP1 Co^2+ IC50; Table 2; in the presence of Co^2+
pIC50: −log10 of the molar value.
readoutName: pIC50

C=CCOc1ccc(Cl)c2cccnc12 < 4.30

Quote hMetAP1 (Homo sapiens, UniProt P53582) pIC50 for entry Oc1cccc2cccnc12 .
< 4.30

----------
target: hMetAP2 (Homo sapiens, UniProt P50579); construct: made in house; assay: MetAP enzymatic assay, hMetAP2; format: biochemical; conditions: Table 2; in the presence of Co^2+; read-out: hMetAP2 Co^2+ IC50
pIC50: −log10 of the molar value.
readoutName: pIC50

compound	reading
OCCN(CCO)Cc1cc(Cl)c2cccnc2c1O [Entry 2a]	< 4.30

Shift focus to the following entry.
Respond only with pIC50 recorded for Oc1c(C(Nc2nccs2)c2ccco2)cc(Cl)c2cccnc12 (centres unmarked) [Entry 2g]
< 4.30

----------
molecular target: hMetAP2 (Homo sapiens); construct: made in house; test: MetAP enzymatic assay, hMetAP2; format: biochemical; settings: Table 3; in the presence of Mn^2+; read-out: hMetAP2 Mn^2+ IC50
Parameter pIC50: see the listing below.
// scale note: pIC50 = -log10(conc_M); give the bare number

compound	readoutName	reading
O=C(Nc1cc(F)cc(F)c1)Oc1ccc(Cl)c2cccnc12 [Entry 4g]	pIC50	5.74
O=C(Nc1ccc(F)cc1)Oc1c(Cl)cc(Cl)c2cccnc12 [Entry 4f]	pIC50	5.51
O=C(Nc1cc(Cl)cc(Cl)c1)Oc1c(Cl)cc(Cl)c2cccnc12 [Entry 4b]	pIC50	6.05
O=C(Nc1ccccc1)Oc1ccc(Cl)c2cccnc12 [Entry 4e, 5-Chloro-8-quinolyl-N-phenylcarbamate]	pIC50	7.52
O=C(Nc1cc(Cl)cc(Cl)c1)Oc1ccc(Cl)c2cccnc12 [Entry 4c]	pIC50	7.15

Respond only with pIC50 recorded for O=C(Nc1ccccc1)Oc1c(Cl)cc(Cl)c2cccnc12 [Entry 4d]
5.80
